procedure-text: NCI Yeast Anticancer Drug Screen. Data for the rad50 strain (AID 155);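 also: 0% = growth of vehicle-only cultures of the same strain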
conditions-used: S. cerevisiae rad50 strain growth inhibition; at 50.0 µM; hits give high values
Description: Growth inhibition of yeast strains with defined genetic alterations is measured as a screen for potential anti-cancer activity. Selected strains with alterations in DNA damage repair or cell cycle control were exposed to compounds and growth inhibition was measured relative to vehicle treated controls. The strain used in this assay is rad50
About 79,000 compounds went through this panel and 15% of them were active in at least one assay; those are over-represented in the sample as a whole.
Collected growth inhibition values appear next to each entry.
The reply should contain only the number, in %.

CO[C@H](C)[C@](O)(C(=O)OCC1=CC[N+]2([O-])CC[C@H](O)[C@@H]12)C(C)C (some centres not stated); 1.75
O=C(NCCO)c1cc([N+](=O)[O-])cc([N+](=O)[O-])c1; -37.9
Cc1ccc(NC(=O)N(C)N=O)cc1; -3.5

Quick one: growth inhibition of `Fc1ccccc1N=C=S` ?
4.55

Quick one: growth inhibition of COC1CCC2NCCNC2C1 (configuration not stated) ?
6.35

Quick one: growth inhibition of `O=C(CCN1CC=C(c2ccccc2)CC1)NCc1ccccc1` ?
5

Quick one: growth inhibition of `CC(=O)Nc1cc(Cl)c([N+](=O)[O-])cc1C` ?
-14.9

Quick one: growth inhibition of CCCOC(C(=O)OC1CCC2CCC1N2C)(c1ccccc1)c1ccccc1 (configuration not stated) ?
5.4

Quick one: growth inhibition of `O=c1[nH]c(=O)c2[nH]c(N=Nc3ccc(N(CCCl)CCCl)cc3)nc2[nH]1` ?
20.9

Quick one: growth inhibition of `CCOP(=O)(CCP(=O)(OCC)OCC)OCC.C[CH2][Sn]([Cl])([Cl])[CH2]C` ?
42.9

Quick one: growth inhibition of COCC(C)OC(=O)Cc1ccccc1 (configuration not stated) ?
-10.9

Quick one: growth inhibition of `COc1ccc(S(=O)(=O)F)cc1NC(=O)c1ccc2ccccc2c1O` ?
6.4

Quick one: growth inhibition of `O=C1C(Br)=C(N2CC2)C(=O)C(Br)=C1N1CC1` ?
96

Quick one: growth inhibition of `O=C(N/N=C/c1cc(Cl)cc(Cl)c1[O-])c1ccccc1O.O=C(N/N=C/c1cc(Cl)cc(Cl)c1[O-])c1ccccc1O.[Ni+2]` ?
-8.75

Quick one: growth inhibition of COc1ccc2c(c1O)C13C=C(OS(=O)(=O)c4ccc(C)cc4)C=CC1C(C2)N(C)CC3 (configuration not stated) ?
40.3

Quick one: growth inhibition of `Oc1cccc(-c2ccccc2)c1` ?
20.5

Quick one: growth inhibition of `N#CC(C#N)=Cc1cccc(F)c1` ?
37

Quick one: growth inhibition of `Cc1ccc(NC(=O)CCc2ccc(N3C(N)=NC(N)=NC3(C)C)cc2Cl)cc1S(=O)(=O)F` ?
54.6

Quick one: growth inhibition of `Clc1cccc2nncc(N3CC3)c12` ?
2

Quick one: growth inhibition of CCCC(C)SP(=S)(SC(C)CCC)SC(C)CCC (configuration not stated) ?
4.1

Quick one: growth inhibition of `COc1cc(/C=N/NC(=O)CN(C)C)cc(OC)c1N(CCCl)CCCl` ?
8.85

---

procedure-text: NCI Yeast Anticancer Drug Screen. Data for the rad50 strain (AID 155);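 also: 0% = growth of vehicle-only cultures of the same strain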
conditions-used: S. cerevisiae rad50 strain growth inhibition; at 50.0 µM; hits give high values
Procedure: Growth inhibition of yeast strains with defined genetic alterations is measured as a screen for potential anti-cancer activity. Selected strains with alterations in DNA damage repair or cell cycle control were exposed to compounds and growth inhibition was measured relative to vehicle treated controls. The strain used in this assay is rad50
Compounds without any hit were thinned out: in the full panel of roughly 79,000, 15% have a hit.
property-name: growth inhibition (%)
The reply should contain only the number, in %.

Guide cases for growth inhibition, answers given:
Brc1ccc(-c2csc3c4ccccc4cc[n+]23)cc1; 14.6
O=C1/C(=C\c2ccc([N+](=O)[O-])cc2)N2CCC1CC2; -8.3
CS(=N)(=O)CCC(N)P(=O)(O)O (stereo unspecified); -29.8
Clc1ccc(C2CC3CCCCN3O2)cc1 (stereo unspecified); 13.6
O=P(OCCCCCl)(OCCCCCl)C(Cl)Cl; -6.4

Now turn to the next molecule.
Quick one: growth inhibition of CC([NH-])C[NH-].CC([NH-])C[NH-].[Cl-].[Cl-].[Co+3].[O-][Cl+3]([O-])([O-])O (stereo unspecified) ?
37.5

Where do the numbers come from? From PubChem BioAssay (NCI).
